Taken from patent US20090170813A1.

- Measured On: rat mGlu4 (Rattus norvegicus, UniProt P31423)
- Construct: expressed in transfected cells; host or cells: HEK293
- Sequence (P31423 33-912): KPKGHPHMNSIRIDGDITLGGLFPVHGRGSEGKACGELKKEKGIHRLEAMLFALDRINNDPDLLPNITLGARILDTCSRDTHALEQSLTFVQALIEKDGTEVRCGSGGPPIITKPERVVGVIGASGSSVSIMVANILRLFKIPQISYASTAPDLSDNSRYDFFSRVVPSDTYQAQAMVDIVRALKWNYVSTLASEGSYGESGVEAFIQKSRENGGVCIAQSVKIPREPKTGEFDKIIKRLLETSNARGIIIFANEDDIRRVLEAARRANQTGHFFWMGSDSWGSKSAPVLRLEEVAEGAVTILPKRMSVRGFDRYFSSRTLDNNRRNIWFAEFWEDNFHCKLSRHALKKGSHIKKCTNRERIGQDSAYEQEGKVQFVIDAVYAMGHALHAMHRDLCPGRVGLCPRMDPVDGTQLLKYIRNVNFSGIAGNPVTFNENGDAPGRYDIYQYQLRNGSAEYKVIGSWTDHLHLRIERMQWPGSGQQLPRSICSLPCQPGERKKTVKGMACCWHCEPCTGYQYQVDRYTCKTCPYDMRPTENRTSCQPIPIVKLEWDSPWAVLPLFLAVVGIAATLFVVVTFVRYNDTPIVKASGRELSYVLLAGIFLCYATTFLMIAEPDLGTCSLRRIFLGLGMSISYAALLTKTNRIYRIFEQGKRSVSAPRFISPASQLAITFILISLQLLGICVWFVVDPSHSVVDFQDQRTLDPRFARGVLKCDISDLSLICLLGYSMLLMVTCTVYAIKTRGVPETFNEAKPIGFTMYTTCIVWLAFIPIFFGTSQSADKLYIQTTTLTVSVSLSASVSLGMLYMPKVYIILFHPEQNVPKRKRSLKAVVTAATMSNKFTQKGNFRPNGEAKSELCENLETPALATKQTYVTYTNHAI
- Test Method Notes: Agonist activity, [3H]phosphatidylinositol accumulation in HEK293 cells transfected with rat mGlu4 and Gqi9
- Assay type: cell-based
- Cond: Table 1; mean ± spread (n); read-out: EC50 mGlu4

- Molecule: "NC(CCP(=O)(O)CCC(=O)O)C(=O)O (racemic) [Compound 4]"
  Measured On: "rat mGlu4 (Rattus norvegicus, UniProt P31423)"
  Readout Units: "µM"
  EC50: 6.6
- Molecule: "N[C@H](CCP(=O)(O)CCC(=O)O)C(=O)O [(3R)-PCEP, reference compound]"
  Measured On: "rat mGlu4 (Rattus norvegicus, UniProt P31423)"
  Readout Units: "µM"
  EC50: 24.2
